Catalogue of compounds with associated revertant His+ colonies TA100
# Tested on: Salmonella enterica serovar Typhimurium TA100
# protocol_details: Salmonella/microsome assay, TA100
# applied_conditions: −S9, 15 µM
Please give the numeric answer without any surrounding text.

Worked set:
# compound, value_observed
rows = [
    ("CC(=O)Nc1ccc(Cl)cc1C(F)(F)C(=O)NCC[C@@H]1C[C@H](CC(=O)OC(C)(C)C)OC(C)(C)O1 [Compound 13c]", 135),
    ("CC(=O)Nc1ccc(Br)cc1C(F)(F)C(=O)NCC[C@@H]1C[C@H](CC(=O)OC(C)(C)C)OC(C)(C)O1 [Compound 13d]", 96),
    ("CC(=O)Nc1ccc(C)cc1C(F)(F)C(=O)NCC[C@@H]1C[C@H](CC(=O)OC(C)(C)C)OC(C)(C)O1 [Compound 13b]", 146),
]

Input line: Any idea what revertant His+ colonies TA100 was measured for CC(=O)Nc1ccccc1C(F)(F)C(=O)NCC[C@@H]1C[C@H](CC(=O)OC(C)(C)C)OC(C)(C)O1 [Compound 13a] ?
Output line: 136
